Please respond with reported activity coefficient for every item in the list.
# MEASUREMENT_NOTES: activity coefficient (dimensionless); of the first substance listed, at infinite dilution; xn = mol fraction of the nth substance listed
# SETTINGS: 333.15 K; 101 kPa; Liquid; Chromatography; x1 = 0
Respond numerically, and do not add a unit to the figure.

Query block: Which activity coefficient value is on record for CCCCO [butan-1-ol] + CCCC[N+]1(C)CCCC1.O=S(=O)([N-]S(=O)(=O)C(F)(F)F)C(F)(F)F ?
Result block: 2.32

Query block: Please do the same for CCN(CC)CC [triethylamine] + CCC[N+]1(C)CCCC1.O=S(=O)([N-]S(=O)(=O)C(F)(F)F)C(F)(F)F as well.
Result block: 8.1

Query block: Please do the same for CC(C)O [propan-2-ol] + CCC[N+]1(C)CCCC1.O=S(=O)([N-]S(=O)(=O)C(F)(F)F)C(F)(F)F as well.
Result block: 1.79

Query block: Please do the same for C1COCCO1 [1,4-dioxane] + CCC[N+]1(C)CCCC1.O=S(=O)([N-]S(=O)(=O)C(F)(F)F)C(F)(F)F as well.
Result block: 0.74

Query block: Please do the same for C=CCCCC [hex-1-ene] + CCCC[N+]1(C)CCCC1.O=S(=O)([N-]S(=O)(=O)C(F)(F)F)C(F)(F)F as well.
Result block: 7.21

Query block: Please do the same for Cc1ccccc1C [1,2-dimethylbenzene] + CCC[N+]1(C)CCCC1.O=S(=O)([N-]S(=O)(=O)C(F)(F)F)C(F)(F)F as well.
Result block: 1.83

Query block: Please do the same for CCCCCCCCCC [decane] + CCC[N+]1(C)CCCC1.O=S(=O)([N-]S(=O)(=O)C(F)(F)F)C(F)(F)F as well.
Result block: 65.7

This collection of values is drawn from the NIST ThermoML archive (doi:10.1021/je4001894).
